This section presents compounds with their documented normalized growth values.
Assay: chemical genetic growth profiling, strain panel (AID 1159580);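 note: tested at 20 µM; growth read once vehicle control cultures reached saturation at 30 °C; 1 = growth at the plate median or of vehicle wells; lower values mean less growth of the strain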
Details: S. cerevisiae deletion strains, growth OD, locus YPR025C, strain CCL1, active compounds read low
Out of some 5,500 compounds screened, about 2,000 (36%) were called active. About 18% were inconclusive and are not listed. The list shows a part of the results.

[
  {
    "Compound": "CCCCc1ccc(N=CNO)c(C)c1",
    "normalized growth": 0.993
  },
  {
    "Compound": "O=C(SCc1c(Cl)cccc1Cl)c1ccc([N+](=O)[O-])o1",
    "normalized growth": 0.959
  },
  {
    "Compound": "Oc1ccc(-n2nnnc2SCc2ccc(OC(F)(F)F)cc2)cc1",
    "normalized growth": 0.975
  },
  {
    "Compound": "O=C1CSC(=Nc2cc(Cl)cc(Cl)c2)N1Cc1cccnc1",
    "normalized growth": 0.992
  },
  {
    "Compound": "N#Cc1c(N)sc2c1CCc1ccccc1-2",
    "normalized growth": 0.911
  },
  {
    "Compound": "Cc1nc([N+](=O)[O-])cn1CC(=O)c1ccc(Cl)cc1",
    "normalized growth": 0.985
  },
  {
    "Compound": "CCOC(=O)C(NC(C)=O)(Nc1ccc(F)c(Cl)c1)C(F)(F)F (configuration not stated)",
    "normalized growth": 0.986
  },
  {
    "Compound": "O=C(O)c1cccc2cccc(C(=O)O)c12",
    "normalized growth": 0.0896
  },
  {
    "Compound": "O=C(Oc1ccc(C2SCCS2)cc1)c1cccs1",
    "normalized growth": 0.997
  },
  {
    "Compound": "COc1cccc(C(=O)C(C#N)=C(SC)SC)c1",
    "normalized growth": 0.875
  },
  {
    "Compound": "Cc1c(Cl)cccc1N=C1SCC(=O)N1Cc1ccco1",
    "normalized growth": 0.975
  },
  {
    "Compound": "O=S(=O)(Nc1ccc(-n2nc(C(F)(F)F)cc2-c2cccs2)cc1)c1ccc(F)cc1",
    "normalized growth": 0.993
  }
]
